# System: 935938-334-R-J1-PDC spheroids with HUVEC/MSC, viability
# Experiment notes: Anticancer human tumor 935938-334-R-J1-PDC patient-derived small intestine adenocarcinoma cell line growth inhibition [PI3K]
# Experimental conditions: second compound 3.16 µM; first compound 3.16 µM; hits give low values
Label YES when viability, T/C is strictly below 50%; otherwise label NO.

Consider the worked cases shown below.
Molecule | Label value
Cn1nccc1Nc1nccc(-c2ccn(C(CO)c3ccc(Cl)c(F)c3)c(=O)c2)n1 (stereo unspecified) + Cc1nc(NC(=O)N2CCCC2C(N)=O)sc1-c1ccnc(C(C)(C)C(F)(F)F)c1 | YES
CC(C)NCC(C(=O)N1CCN(c2ncnc3c2C(C)CC3O)CC1)c1ccc(Cl)cc1 (stereo unspecified) + CC(Nc1ncnc2nc[nH]c12)c1cc2cccc(Cl)c2c(=O)n1-c1ccccc1 | YES
Cn1ncc(Cl)c1-c1cc(C(=O)NC(CN)Cc2cccc(F)c2)sc1Cl (stereo unspecified) + CC(Nc1ncnc2nc[nH]c12)c1cc2cccc(Cl)c2c(=O)n1-c1ccccc1 | NO

Answer whether the molecule C[C@@H](NC(=O)c1ncnc(N)c1Cl)c1ncc(C(=O)Nc2cc(C(F)(F)F)c(Cl)cn2)s1 + CC(Nc1ncnc2nc[nH]c12)c1cc2cccc(Cl)c2c(=O)n1-c1ccccc1 has viability, T/C strictly less than 50% NO

Input CCCS(=O)(=O)Nc1ccc(F)c(C(=O)c2c[nH]c3ncc(-c4ccc(Cl)cc4)cc23)c1F + CC(Nc1ncnc2nc[nH]c12)c1cc2cccc(Cl)c2c(=O)n1-c1ccccc1 ; condition: viability, T/C strictly below 50%. Does it hold? NO

Please determine if C#Cc1c(F)ccc2cc(O)cc(-c3ncc4c(N5CC6CCC(C5)N6)nc(OCC56CCCN5CC(F)C6)nc4c3F)c12 (stereo unspecified) + Cc1nc(NC(=O)N2CCCC2C(N)=O)sc1-c1ccnc(C(C)(C)C(F)(F)F)c1 is below 50% in terms of viability, T/C. YES

* * *

# Test system: 935938-334-R-J1-PDC spheroids with HUVEC/MSC, viability
# Experiment notes: Anticancer human tumor 935938-334-R-J1-PDC cell line growth inhibition [PI3K];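 further: compound exposure lasted seven days before viability was read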
# Experimental conditions: second compound 0.316 µM; first compound 0.01 µM; hits give low values
Lab note: compare viability, T/C with 50%, writing rule met if less and rule not met if equal or more.

Recorded results for 2 compounds are shown here.
Compound | Label value
Cn1ncnc1[C@H]1c2n[nH]c(=O)c3cc(F)cc(c23)N[C@@H]1c1ccc(F)cc1 + CC(Nc1ccc2c(c1)OCCn1cc(N3C(=O)OCC3C(F)F)nc1-2)C(N)=O | rule not met
CC(=O)c1c(C)c2cnc(Nc3ccc(N4CCNCC4)cn3)nc2n(C2CCCC2)c1=O + CC(Nc1ccc2c(c1)OCCn1cc(N3C(=O)OCC3C(F)F)nc1-2)C(N)=O | rule not met

Determine if CC(=O)c1c(C)c2cnc(Nc3ccc(N4CCNCC4)cn3)nc2n(C2CCCC2)c1=O + CC(Nc1ncnc2nc[nH]c12)c1cc2cccc(Cl)c2c(=O)n1-c1ccccc1 shows viability, T/C strictly lower than 50%. rule not met

Is viability, T/C of CC(=O)c1c(C)c2cnc(Nc3ccc(N4CCNCC4)cn3)nc2n(C2CCCC2)c1=O + COc1c(OCCCN2CCOCC2)ccc2c3n(c(=NC(=O)c4cnc(N)nc4)nc12)CCN3 strictly below 50%? rule met

Is the reported viability, T/C for CC(C)n1nc(-c2ccc3oc(N)nc3c2)c2c(N)ncnc21 + CC(Nc1ncnc2nc[nH]c12)c1cc2cccc(Cl)c2c(=O)n1-c1ccccc1 strictly below 50%? rule not met
